These data points were gathered from ChEMBL document CHEMBL1139109.

EXPERIMENTAL TARGET: 5-hydroxytryptamine receptor 6 (Homo sapiens)
pKi: −log10 of the molar value.
Is pKi at least 7? Then satisfied. If not, not satisfied.

input: Form field: pKi at least 7? Entry: "COc1ccc(S(=O)(=O)n2cc(CCN(C)C)c3ccccc32)cc1"
output: satisfied

----------
Entries with reported pKi on 5-hydroxytryptamine receptor 6 (Homo sapiens, UniProt P50406)
Sequence (P50406 whole entry): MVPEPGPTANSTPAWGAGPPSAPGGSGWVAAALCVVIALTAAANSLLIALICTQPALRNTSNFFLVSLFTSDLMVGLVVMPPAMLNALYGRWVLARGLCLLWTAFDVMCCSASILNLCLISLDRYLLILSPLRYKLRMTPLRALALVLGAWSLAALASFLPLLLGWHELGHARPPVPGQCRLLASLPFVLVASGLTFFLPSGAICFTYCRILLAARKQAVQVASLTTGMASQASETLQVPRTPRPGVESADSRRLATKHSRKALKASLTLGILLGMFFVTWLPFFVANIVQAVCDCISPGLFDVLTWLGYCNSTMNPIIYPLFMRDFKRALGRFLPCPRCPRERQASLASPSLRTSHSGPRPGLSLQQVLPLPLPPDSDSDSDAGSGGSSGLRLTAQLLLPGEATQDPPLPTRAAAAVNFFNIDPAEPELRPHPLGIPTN
Answers are plain numbers, as −log10 of the molar value.

CCCCS(=O)(=O)n1cc(CCN(C)C)c2ccccc21 ... 6.87

I'm hoping you can list pKi for every compound here, please.
1. CN(C)CCc1cn(Cc2ccc(Cl)cc2)c2ccccc12
2. Nc1ccc(Cn2c3c(c4ccccc42)CCCC3)cc1

output:
[7.70, 5.22]

input: Dear colleague, please send me the reported pKi for "CCCCCCCCS(=O)(=O)n1cc(CCN(C)C)c2ccccc21" when you can.
output: 6.36

----------
Please respond with reported log10(Ki) for every item in the list.
EXPERIMENTAL TARGET: 5-hydroxytryptamine receptor 6 (Homo sapiens, UniProt P50406)
ASSAY NOTES: Displacement of [3H] LSD from human 5HT6 receptor expressed in HEK293 cells
Assay type: cell-based
All values: log10 Ki [nM].

Please review the entries below; each comes with its answer.
CN(C)CC1CCCc2c1c1ccccc1n2S(=O)(=O)c1ccccc1 (stereo unspecified) ... 0.18
CN(C)CCc1cn(S(=O)(=O)c2ccc(Cl)cc2)c2ccccc12 ... 1.97
CN(C)CCc1cn(S(=O)(=O)c2ccc(C(F)(F)F)cc2)c2ccccc12 ... 0.28
CCCCCS(=O)(=O)n1cc(CCN(C)C)c2ccccc21 ... 2.34
CN(C)CCc1cn(S(=O)(=O)C2CCCCC2)c2ccccc12 ... 2.32
CN(C)CCc1cn(Cc2ccc(N)cc2)c2ccccc12 ... 1.64
CC(C)S(=O)(=O)n1cc(CCN(C)C)c2ccccc21 ... 2.77
CCCS(=O)(=O)n1cc(CCN(C)C)c2ccccc21 ... 2.45
CN(C)CC1CCCc2c1c1ccccc1n2Cc1ccccc1 (stereo unspecified) ... 2.13
Cc1ccc(Cn2cc(CCN(C)C)c3ccccc32)cc1 ... 1.46

input: Give the value of log10(Ki) reported for the following: "Cc1ccc(S(=O)(=O)n2cc(CCN(C)C)c3ccccc32)cc1"
output: 0.40
